Tested on: up to 32 different microorganisms
test.summary: in vitro antibacterial activity (MIC), agar dilution on Brain Heart Infusion (BHI) agar with Steers replicator
Format: cell-based
protocol.conditions: Streptococcus Pneumonia GYR 1171 (code YY); unit assumed
outcome.measure: MIC (µg/mL)
Kindly answer with a numeric value in µg/mL, unit omitted.

A selection of reference data follows.
compound: C=CCO[C@@]1(C)C[C@@H](C)C(=O)[C@H](C)[C@H]2OC(=O)O[C@]2(C)[C@@H](CC)OC(=O)[C@H](C)C(=O)[C@H](C)[C@H]1O[C@@H]1O[C@H](C)C[C@H](N(C)C)[C@H]1O [Example 71]
MIC, µg/mL: 0.25
//
compound: CC[C@H]1OC(=O)[C@H](C)C(=O)[C@H](C)[C@@H](O[C@@H]2O[C@H](C)C[C@H](N(C)C)[C@H]2O)[C@@](C)(OCC=NO)C[C@@H](C)C(=O)[C@H](C)[C@@H](O)[C@]1(C)O [Example 5]
MIC, µg/mL: 4
//
compound: C=CCOC1(C)CC(C)C(=O)C(C)C(O)C(C)(O)C(CC)OC(=O)C(C)C(=O)C(C)C1OC1OC(C)CC(N(C)C)C1O (stereo not drawn) [Example 1]
MIC, µg/mL: 4
//
compound: C=CCO[C@@]1(C)C[C@@H](C)C(=O)[C@H](C)[C@H]2NC(=O)O[C@]2(C)[C@@H](CC)OC(=O)[C@H](C)C(=O)[C@H](C)[C@H]1O[C@@H]1O[C@H](C)C[C@H](N(C)C)[C@H]1O [Example 102]
MIC, µg/mL: 0.25
//
compound: C=CCO[C@@]1(C)C[C@@H](C)C(=O)[C@H](C)[C@H]2N(C)C(=O)O[C@]2(C)[C@@H](CC)OC(=O)[C@H](C)C(=O)[C@H](C)[C@H]1O[C@@H]1O[C@H](C)C[C@H](N(C)C)[C@H]1O [Example 179]
MIC, µg/mL: 0.5
//
compound: CC[C@H]1OC(=O)[C@H](C)C(=O)[C@H](C)[C@@H](O[C@@H]2O[C@H](C)C[C@H](N(C)C)[C@H]2O)[C@@](C)(OCC=Cc2ccc(Cl)cc2)C[C@@H](C)C(=O)[C@H](C)[C@H]2OC(=O)O[C@@]21C [Example 74]
MIC, µg/mL: 0.125
//
compound: CCC1OC(=O)C(C)C(=O)C(C)C(OC2OC(C)CC(N(C)C)C2O)C(C)(OCC=Cc2cncc3ccccc23)CC(C)C(=O)C(C)C2NC(=O)OC12C (stereo not drawn) [Example 187, R is —CH2CH═CH-(4-isoquinolinyl)]
MIC, µg/mL: 0.03
//
compound: CC[C@H]1OC(=O)[C@H](C)C(=O)[C@H](C)[C@@H](O[C@@H]2O[C@H](C)C[C@H](N(C)C)[C@H]2O)[C@@](C)(OCC=Cc2ccc(F)cc2)C[C@@H](C)C(=O)[C@H](C)[C@@H](O)[C@]1(C)O [Example 174]
MIC, µg/mL: 1
//
compound: CC[C@H]1OC(=O)[C@H](C)C(=O)[C@H](C)[C@@H](O[C@@H]2O[C@H](C)C[C@H](N(C)C)[C@H]2O)[C@@](C)(OCc2ccc3ccccc3c2)C[C@@H](C)C(=O)[C@H](C)[C@H]2NC(=O)O[C@@]21C [Example 176]
MIC, µg/mL: 0.25
//
compound: CC[C@H]1OC(=O)[C@H](C)C(=O)[C@H](C)[C@@H](O[C@@H]2O[C@H](C)C[C@H](N(C)C)[C@H]2O)[C@@](C)(OCC=Cc2cnc3ccccc3c2)C[C@@H](C)C(=O)[C@H](C)[C@H]2NC(=O)O[C@@]21C [Example 104]
MIC, µg/mL: 0.03

QUERY: I'm curious: which MIC was measured for CCC1OC(=O)C(C)C(=O)C(C)C(OC2OC(C)CC(N(C)C)C2O)C(C)(OCC=Cc2cnc3ccccc3c2)CC(C)C(=O)C(C)C2N(CCN(C)C)C(=O)OC12C (stereo not drawn) [Example 182] tested on up to 32 different microorganisms?
RESULT: 0.25

QUERY: I'm curious: which MIC was measured for CCC1OC(=O)C(C)C(=O)C(C)C(OC2OC(C)CC(N(C)C)C2O)C(C)(OCC=Cc2cccc3cccnc23)CC(C)C(=O)C(C)C2NC(=O)OC12C (stereo not drawn) [Example 189, R is —CH2CH-(8-quinolyl)] tested on up to 32 different microorganisms?
RESULT: 0.06

Values compiled from patent USRE39591E1.
